Cited source: paper PMC8956657

# target.or.system: IMPα1 lacking the IBB domain (residues 70-529) (UniProt P52292 70-529)
# assay.details: fluorescence polarisation
# experimental.setup: both partners purified
pKd: −log10 of the molar value. Where no end group is shown, it is not given here.
parameter.measured: pKd

>>> quantitative_result("RKARKRSHSPTKKLRYVKRRF (also: FITC-tagged) [FITC-tagged MERS-CoV ORF4b NLS peptide (residues 19-39), wild type]")
8.60
